Target Or Test System: T1, human SLC34A2 (human, UniProt O95436 1-690)
T1 construct: whole, on cells; also called human solute carrier 34 A2; NaPi2b
T1 sequence (looked up): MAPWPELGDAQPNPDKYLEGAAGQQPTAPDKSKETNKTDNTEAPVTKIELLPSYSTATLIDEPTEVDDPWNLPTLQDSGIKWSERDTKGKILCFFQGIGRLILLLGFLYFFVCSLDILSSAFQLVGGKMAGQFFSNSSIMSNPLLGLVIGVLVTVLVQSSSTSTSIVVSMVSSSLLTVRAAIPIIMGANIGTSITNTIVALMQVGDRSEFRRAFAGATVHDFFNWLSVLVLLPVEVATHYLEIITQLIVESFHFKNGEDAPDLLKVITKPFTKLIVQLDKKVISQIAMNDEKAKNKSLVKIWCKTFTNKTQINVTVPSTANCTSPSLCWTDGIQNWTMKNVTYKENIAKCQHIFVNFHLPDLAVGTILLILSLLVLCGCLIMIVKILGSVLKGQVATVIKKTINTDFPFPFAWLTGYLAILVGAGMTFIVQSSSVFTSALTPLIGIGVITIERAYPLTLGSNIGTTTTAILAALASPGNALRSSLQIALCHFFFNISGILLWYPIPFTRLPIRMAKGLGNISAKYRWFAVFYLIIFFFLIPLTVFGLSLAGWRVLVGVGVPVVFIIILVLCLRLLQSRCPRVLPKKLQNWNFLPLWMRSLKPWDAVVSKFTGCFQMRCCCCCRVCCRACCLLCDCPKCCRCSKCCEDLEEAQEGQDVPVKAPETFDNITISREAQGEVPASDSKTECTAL
Method Summary: FACS, OVCAR3 cells
Description: In this example, cell based binding of chimeric antibodies (hIgG1) prepared from the murine antibodies on human SLC34A2 expressing cells were assessed using flow cytometry. Briefly, OVCAR3 cells or HEK293 cells expressing human SLC34A2 were incubated with chimeric antibodies (from 200 nM, 4 folds dilution, 8 points). […] After that the cells were washed twice and analyzed by flow cytometry.
Endpoint Name: EC50 (nM)
Give just the numeric value; nM need not be written.

Task: Look up EC50: xi63A11D5B4 hIgG1 (antibody, V domains shown, chimeric, hIgG1) VH: QVQLQQPGAELVKPGASVKMSCRTSGYTFITYNMHWVKQTPGQGREWIGAIYPGNGDTSYNQKFKGKATLTADKSSSTAYMQLNSLTSEDSAVYYCSISTIITTGAVDYWGQGTSVTVAS VL: DIVMTQSHKFMSTSVGDRVSITCKASQDVGTAVAWYQQKAGQSPKLLIYWTSTRHTGVPDRFTGSGSGTDFTLIIRSLQSEDLADYFCQQYSRIPLTFGSGTKLEIK
Result: 3.85

Taken from patent US20240301052A1.
